Origin of values: paper PMC10572855

- System: Huh7 cells
- ASSAY_NAME: Cytotoxicity in Huh7 cells, MTS assay
- Format: cell-based, Human
- TEST_CONDITIONS: cell growth reduced by 50%
MEASURED_METRIC: CC50

| COMPOUND | MEASURED_METRIC | MEASURED_VALUE |
| --- | --- | --- |
| CCCCCCCCCCCCOc1ccc2c(c1)nc1ccn([C@@H]3O[C@H](COC(c4ccccc4)(c4ccc(OC)cc4)c4ccc(OC)cc4)[C@@H](O)[C@H]3O)c(=O)n12 [Compound 5e] | CC50 | > 40 µM |
| CCCCCCCCOc1ccc2c(c1)nc1ccn([C@@H]3O[C@H](COC(c4ccccc4)(c4ccc(OC)cc4)c4ccc(OC)cc4)[C@@H](O)[C@H]3O)c(=O)n12 [Compound 5c] | CC50 | > 10 µM |
| CCCCOc1ccc2c(c1)nc1ccn([C@@H]3O[C@H](COC(c4ccccc4)(c4ccc(OC)cc4)c4ccc(OC)cc4)[C@@H](O)[C@H]3O)c(=O)n12 [Compound 5a] | CC50 | > 100 µM |
| CCCCCCCCCCOc1ccc2c(c1)nc1ccn([C@@H]3O[C@H](COC(c4ccccc4)(c4ccc(OC)cc4)c4ccc(OC)cc4)[C@@H](O)[C@H]3O)c(=O)n12 [Compound 5d] | CC50 | > 100 µM |
